The reported numbers originate from patent EP2155781B1.

Biological target: adrenomedullin receptors in the lungs of dogs (binding profile of the AM1 receptor, CRLR+RAMP2) (dog)
Assay: displacement of iodine-marked hAM in dog lungs
No end group written: not given here.
Parameter Measured: IC50 (nM)

{"columns": ["Binder", "Parameter Measured", "Observed"],
 "data": [
  ["QVQNLSHRLWQLMGPAGRQDSAPVDPSSPHSY (peptide, UniProt Q7Z4H4 116-147, looked up, ends and bridges not checked) [hAM2(16-47)]", "IC50", 980]
]}

P = TVQKLAHQIYQFTDKDKDNVAPRSKISPQGY-NH2 [hAM(22-52)]
Q = SFGCRFGTCTVQKLAHQIYQFTDKDKDNVAPRSKISPQGY-NH2 (ends and bridges not checked) [hAM(13-52)]
R = TQAQLLRVGCVLGTCQVQNLSHRLWQLMGPAGRQDSAPVDPSSPHSY (peptide, UniProt Q7Z4H4 101-147, looked up) [hAM2]
Task: Sort low-to-high on IC50, please. The reply should contain the labels ordered as requested.
Result: Q, R, P
